I'd appreciate it if you could supply IC50 values for the items below.
Target: recombinant human VAP-1 (Homo sapiens, UniProt Q16853)
Construct: purchased R&D systems
Sequence (Q16853 whole entry): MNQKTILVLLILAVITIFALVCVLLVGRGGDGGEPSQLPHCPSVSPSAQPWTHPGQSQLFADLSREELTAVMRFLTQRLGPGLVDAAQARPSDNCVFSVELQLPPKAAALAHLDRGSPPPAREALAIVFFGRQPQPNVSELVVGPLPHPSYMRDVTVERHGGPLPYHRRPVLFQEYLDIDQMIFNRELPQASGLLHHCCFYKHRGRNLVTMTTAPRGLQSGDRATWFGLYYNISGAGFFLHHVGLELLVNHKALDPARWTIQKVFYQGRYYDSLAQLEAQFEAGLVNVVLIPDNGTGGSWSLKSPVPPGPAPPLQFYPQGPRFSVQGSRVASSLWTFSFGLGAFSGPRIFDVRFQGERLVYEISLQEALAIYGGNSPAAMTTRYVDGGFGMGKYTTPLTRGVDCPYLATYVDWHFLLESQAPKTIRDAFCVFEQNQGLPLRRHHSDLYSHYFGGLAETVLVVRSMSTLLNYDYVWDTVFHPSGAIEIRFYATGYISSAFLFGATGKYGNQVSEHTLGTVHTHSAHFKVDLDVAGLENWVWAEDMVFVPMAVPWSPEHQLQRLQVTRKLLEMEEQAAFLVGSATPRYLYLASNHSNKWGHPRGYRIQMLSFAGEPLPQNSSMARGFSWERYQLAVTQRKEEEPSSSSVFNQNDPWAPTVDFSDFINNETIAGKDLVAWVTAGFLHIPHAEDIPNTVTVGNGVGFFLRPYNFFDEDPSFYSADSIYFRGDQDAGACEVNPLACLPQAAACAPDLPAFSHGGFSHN
Assay: Activity on recombinant human VAP-1, Amplex Red HRP-coupled hydrogen peroxide assay, benzylamine substrate
Assay type: biochemical
Details: recombinant human VAP-1, benzylamine substrate; read-out: Inhibitory Activity (IC50, nM) human VAP-1
Protocol: The compounds according to the present technology were evaluated in terms of activity on recombinant human VAP-1 (R&D systems) by measuring the level of hydrogen peroxide in horseradish peroxidase (HRP)-coupled reaction using Amplex Red Hydrogen Peroxide Assay Kit (Molecular Probes, Invitrogen, USA). […] The inhibitory effect of the compounds was measured as a decrease (%) in the signal rate as compared to the control group without any inhibitor (only diluted DMSO). […]
Where a name gives a salt, the structure may show the parent alone.
Remember to quote the unit after the number.

As a guide, the following entries are already answered.
>>> observed_result("NC/C(=C\\F)Cn1ncn(-c2cnc(-c3ccc4nonc4c3)cn2)c1=O [Example 222]")
"0.94 nM"
>>> observed_result("NC/C(=C\\F)Cn1ncn(-c2cnc(-c3ccc(N4CCOCC4)nc3)cn2)c1=O [Example 221]")
"1.9 nM"
>>> observed_result("NC/C(=C\\F)Cn1ncn(-c2cccc(C#Cc3cccnc3)c2)c1=O [Example 243, hydrochloride]")
"0.6 nM"
>>> observed_result("Cc1cc(-c2ccc3nonc3c2)cnc1-n1cnn(C/C(=C/F)CN)c1=O [Example 152, hydrochloride]")
"0.5 nM"

Parameter requested: IC50. Apply to each item below.
1. CN(C)c1ncc(-c2cccc(-n3cnn(C/C(=C/F)CN)c3=O)n2)cc1F [Example 191, hydrochloride]
2. NC/C(=C\F)Cn1ncn(-c2cccc(-c3ccc4sc(N)nc4c3)n2)c1=O [Example 196]
3. NC/C(=C\F)Cn1ncn(-c2cccc(-c3cccc(-c4noc(C5CC5)n4)c3)n2)c1=O [Example 179, hydrochloride]
4. CC(C)c1nc(-c2cccc(-c3cccc(-n4cnn(C/C(=C/F)CN)c4=O)n3)c2)no1 [Example 181]

0.5 nM
1.1 nM
1.1 nM
1.9 nM

###

biological target: recombinant human MAO-B (monoamine oxidase-B) (Homo sapiens); construct: purchased Sigma-Aldrich; assay: Activity on recombinant human MAO-B, Amplex Red method, 1 mM benzylamine substrate; type: biochemical; details: 1 mM benzylamine, read-out: Inhibitory Activity (IC50, nM) MAO-B
Sequence (P27338 whole entry): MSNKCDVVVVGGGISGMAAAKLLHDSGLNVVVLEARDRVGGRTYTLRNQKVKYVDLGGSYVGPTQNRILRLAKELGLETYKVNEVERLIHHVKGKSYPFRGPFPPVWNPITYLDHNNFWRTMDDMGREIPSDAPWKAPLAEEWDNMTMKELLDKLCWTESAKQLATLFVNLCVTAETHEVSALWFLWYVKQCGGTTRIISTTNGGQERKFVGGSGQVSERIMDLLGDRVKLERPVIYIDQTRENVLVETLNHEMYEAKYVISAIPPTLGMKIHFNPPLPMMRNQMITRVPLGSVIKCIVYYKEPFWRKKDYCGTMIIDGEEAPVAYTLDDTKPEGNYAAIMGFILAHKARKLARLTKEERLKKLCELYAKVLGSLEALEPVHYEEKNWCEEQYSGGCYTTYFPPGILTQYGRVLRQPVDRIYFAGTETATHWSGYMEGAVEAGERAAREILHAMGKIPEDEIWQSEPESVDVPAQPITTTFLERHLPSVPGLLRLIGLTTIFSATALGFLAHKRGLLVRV
Counter-ions that a name gives are not always drawn.
I'd appreciate it if you could supply log10 of IC50 values for the items below.
Plainly stated, the numbers are log10 of IC50 given in nM.

>>> observed_result("NC/C(=C\\F)Cn1ncn(-c2ccc(-c3ccc(-c4nnc[nH]4)cc3)cc2F)c1=O [Example 43]")
2.29
>>> observed_result("COc1cc(-n2cnn(C/C(=C\\F)CN)c2=O)ccc1Br [Example 17]")
2.61
>>> observed_result("CC(=O)c1ccc(-c2cccc(-n3cnn(C/C(=C/F)CN)c3=O)c2)s1 [Example 49, hydrochloride]")
2.90
>>> observed_result("Cc1cc(-n2cnn(C/C(=C/F)CN)c2=O)cnc1-c1ccc2c(c1)OCO2 [Example 117]")
1.51
>>> observed_result("NC/C(=C\\F)Cn1ncn(-c2ccc(Br)c(F)c2)c1=O [Example 14, hydrochloride]")
1.54
>>> observed_result("NC/C(=C\\F)Cn1ncn(-c2ncc(Br)s2)c1=O [Example 41, hydrochloride]")
2.24
>>> observed_result("NC/C(=C/F)Cn1ncn(-c2ccc(Br)c(F)c2)c1=O [Example 13]")
0.52
>>> observed_result("NC/C(=C\\F)Cn1ncn(-c2cccc(-c3ccc4nonc4c3)c2)c1=O [Example 96, hydrochloride]")
2.59
>>> observed_result("NC/C(=C\\F)Cn1ncn(-c2cccc(-c3cc4ccccc4s3)c2)c1=O [Example 101, hydrochloride]")
2.48

Now for another entry.
Provide measured log10 of IC50 on recombinant human MAO-B (monoamine oxidase-B) (Homo sapiens) for NC/C(=C\F)Cn1ncn(-c2cccc(-c3ccc4c(c3)OCCO4)c2)c1=O [Example 95, hydrochloride] please. 3.16
